MEASURED TARGET: DNA topoisomerase 2-alpha (Homo sapiens) (UniProt P11388)
Sequence (P11388 whole entry): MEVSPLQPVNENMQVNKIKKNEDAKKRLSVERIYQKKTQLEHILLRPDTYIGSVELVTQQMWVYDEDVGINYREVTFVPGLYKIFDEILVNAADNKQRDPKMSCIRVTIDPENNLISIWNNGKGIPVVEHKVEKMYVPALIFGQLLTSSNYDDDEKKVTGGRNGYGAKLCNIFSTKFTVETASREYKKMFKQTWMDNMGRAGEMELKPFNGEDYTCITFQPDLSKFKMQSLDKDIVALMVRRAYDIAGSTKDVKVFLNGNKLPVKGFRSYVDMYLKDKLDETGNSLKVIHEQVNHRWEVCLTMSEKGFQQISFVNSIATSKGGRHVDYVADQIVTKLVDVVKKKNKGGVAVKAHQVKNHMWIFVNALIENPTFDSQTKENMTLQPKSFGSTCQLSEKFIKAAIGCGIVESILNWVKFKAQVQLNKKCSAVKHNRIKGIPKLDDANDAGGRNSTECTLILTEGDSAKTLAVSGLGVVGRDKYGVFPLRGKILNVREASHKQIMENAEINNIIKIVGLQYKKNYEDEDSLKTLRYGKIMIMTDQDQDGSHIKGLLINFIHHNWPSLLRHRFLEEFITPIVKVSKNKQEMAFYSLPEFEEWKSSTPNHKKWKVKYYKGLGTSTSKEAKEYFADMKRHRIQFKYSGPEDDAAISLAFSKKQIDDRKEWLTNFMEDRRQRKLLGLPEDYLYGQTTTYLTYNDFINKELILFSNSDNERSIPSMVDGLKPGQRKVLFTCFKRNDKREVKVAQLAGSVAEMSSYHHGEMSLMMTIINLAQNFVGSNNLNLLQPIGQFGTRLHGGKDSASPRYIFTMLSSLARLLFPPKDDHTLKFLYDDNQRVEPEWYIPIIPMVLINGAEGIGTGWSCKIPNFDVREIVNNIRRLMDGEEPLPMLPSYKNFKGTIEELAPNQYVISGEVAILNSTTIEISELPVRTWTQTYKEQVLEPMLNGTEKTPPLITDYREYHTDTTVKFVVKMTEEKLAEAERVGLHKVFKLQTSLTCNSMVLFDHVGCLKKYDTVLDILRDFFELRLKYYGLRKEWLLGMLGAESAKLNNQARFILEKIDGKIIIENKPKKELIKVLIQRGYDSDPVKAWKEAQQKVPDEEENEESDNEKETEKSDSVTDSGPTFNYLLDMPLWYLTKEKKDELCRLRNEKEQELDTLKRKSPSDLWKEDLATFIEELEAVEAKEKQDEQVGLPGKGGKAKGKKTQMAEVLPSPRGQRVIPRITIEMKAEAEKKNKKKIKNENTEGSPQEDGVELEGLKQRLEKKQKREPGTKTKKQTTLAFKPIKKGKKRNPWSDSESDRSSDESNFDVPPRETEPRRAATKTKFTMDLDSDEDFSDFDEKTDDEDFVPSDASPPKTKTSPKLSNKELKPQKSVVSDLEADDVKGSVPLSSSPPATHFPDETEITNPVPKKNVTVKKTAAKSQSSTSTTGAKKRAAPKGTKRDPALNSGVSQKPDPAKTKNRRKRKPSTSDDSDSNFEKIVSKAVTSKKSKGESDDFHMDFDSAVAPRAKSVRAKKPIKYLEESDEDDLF
PROTOCOL SUMMARY: Inhibition of recombinant human topoisomerase 2alpha-mediated relaxation of supercoiled pBR322 DNA at 20 uM measured after 30 mins by ethidium bromide staining based agarose gel electrophoresis relative to control
Consider the reported inhibition of an entry and match it to a band in low bracket (below 2%), middle bracket (2% to below 8%), high bracket (8% or more)

Into which bin does this molecule go? `Oc1ccc(-c2cc(-c3ccccc3F)nc3c2Cc2cccc(O)c2-3)cc1`
low bracket

Into which bin does this molecule go? `Oc1cccc(-c2cc(-c3ccccc3)nc3c2Cc2c(O)cccc2-3)c1`
low bracket

Into which bin does this molecule go? `Oc1ccc2c(c1)-c1nc(-c3ccccc3C(F)(F)F)cc(-c3ccccc3O)c1C2`
middle bracket

Into which bin does this molecule go? `Oc1ccc2c(c1)-c1nc(-c3ccccc3O)cc(-c3ccc(Cl)cc3)c1C2`
low bracket

Into which bin does this molecule go? `Oc1ccc(-c2cc(-c3ccccc3)c3c(n2)-c2ccc(O)cc2C3)cc1`
high bracket

Into which bin does this molecule go? `Oc1ccc(-c2cc(-c3ccccc3Cl)nc3c2Cc2cccc(O)c2-3)cc1`
middle bracket

Into which bin does this molecule go? `Oc1cccc(-c2cc(-c3cccc(Cl)c3)c3c(n2)-c2c(O)cccc2C3)c1`
low bracket

Into which bin does this molecule go? `Oc1cccc(-c2cc(-c3cccc(C(F)(F)F)c3)nc3c2Cc2cc(O)ccc2-3)c1`
high bracket

Into which bin does this molecule go? `Oc1ccc(-c2cc(-c3cccc(Cl)c3)c3c(n2)-c2ccc(O)cc2C3)cc1`
middle bracket

Into which bin does this molecule go? `Oc1cccc(-c2cc(-c3ccccc3Cl)nc3c2Cc2ccc(O)cc2-3)c1`
high bracket

Into which bin does this molecule go? `Oc1cccc(-c2cc(-c3ccc(C(F)(F)F)cc3)nc3c2Cc2cccc(O)c2-3)c1`
low bracket

Into which bin does this molecule go? `Oc1cccc(-c2cc(-c3ccccc3Cl)nc3c2Cc2cccc(O)c2-3)c1`
high bracket

Into which bin does this molecule go? `Oc1cccc(-c2cc(-c3ccc(Cl)cc3)nc3c2Cc2cc(O)ccc2-3)c1`
high bracket

Into which bin does this molecule go? `Oc1ccc(-c2cc(-c3ccc(Cl)cc3)c3c(n2)-c2cc(O)ccc2C3)cc1`
high bracket

Into which bin does this molecule go? `Oc1ccc(-c2cc(-c3ccc(C(F)(F)F)cc3)nc3c2Cc2cc(O)ccc2-3)cc1`
low bracket

Into which bin does this molecule go? `Oc1ccccc1-c1cc(-c2ccccc2Cl)c2c(n1)-c1c(O)cccc1C2`
low bracket

Into which bin does this molecule go? `Oc1ccc(-c2cc(-c3ccccc3Cl)c3c(n2)-c2cccc(O)c2C3)cc1`
high bracket

Into which bin does this molecule go? `Oc1ccc(-c2cc(-c3ccccc3Cl)c3c(n2)-c2c(O)cccc2C3)cc1`
low bracket

Into which bin does this molecule go? `Oc1ccc(-c2cc(-c3cccc(Cl)c3)c3c(n2)-c2cccc(O)c2C3)cc1`
middle bracket

Into which bin does this molecule go? `Oc1cccc(-c2cc(-c3cccc(F)c3)nc3c2Cc2ccc(O)cc2-3)c1`
middle bracket

Into which bin does this molecule go? `Oc1ccc(-c2cc(-c3ccc(Cl)cc3)nc3c2Cc2cc(O)ccc2-3)cc1`
high bracket

Into which bin does this molecule go? `Oc1cccc(-c2cc(-c3ccc(Cl)cc3)c3c(n2)-c2cc(O)ccc2C3)c1`
high bracket

Into which bin does this molecule go? `Oc1ccc2c(c1)Cc1c(-c3ccccc3O)cc(-c3ccccc3C(F)(F)F)nc1-2`
middle bracket

Into which bin does this molecule go? `Oc1cccc(-c2cc(-c3cccc(Cl)c3)nc3c2Cc2c(O)cccc2-3)c1`
high bracket

Into which bin does this molecule go? `Oc1ccccc1-c1cc(-c2ccc(Cl)cc2)nc2c1Cc1cccc(O)c1-2`
high bracket

Into which bin does this molecule go? `Oc1ccc(-c2cc(-c3ccc(F)cc3)nc3c2Cc2cccc(O)c2-3)cc1`
low bracket

Into which bin does this molecule go? `Oc1cccc2c1-c1nc(-c3ccccc3)cc(-c3ccccc3)c1C2`
low bracket

Into which bin does this molecule go? `Oc1ccccc1-c1cc(-c2ccc(Cl)cc2)c2c(n1)-c1c(O)cccc1C2`
middle bracket

Into which bin does this molecule go? `Oc1ccc(-c2cc(-c3ccc(Cl)cc3)nc3c2Cc2c(O)cccc2-3)cc1`
low bracket

Into which bin does this molecule go? `Oc1ccccc1-c1cc(-c2ccccc2Cl)nc2c1Cc1cccc(O)c1-2`
middle bracket

Into which bin does this molecule go? `Oc1ccc2c(c1)-c1nc(-c3ccc(C(F)(F)F)cc3)cc(-c3ccccc3O)c1C2`
middle bracket

Into which bin does this molecule go? `Oc1ccccc1-c1cc(-c2cccc(F)c2)nc2c1Cc1c(O)cccc1-2`
middle bracket

Into which bin does this molecule go? `Oc1ccccc1-c1cc(-c2cccc(Cl)c2)nc2c1Cc1cccc(O)c1-2`
middle bracket

Into which bin does this molecule go? `Oc1ccc2c(c1)Cc1c(-c3ccccc3Cl)cc(-c3ccccc3O)nc1-2`
middle bracket

Into which bin does this molecule go? `Oc1cccc(-c2cc(-c3ccccc3Cl)c3c(n2)-c2cccc(O)c2C3)c1`
high bracket

Into which bin does this molecule go? `Oc1ccc(-c2cc(-c3ccccc3Cl)nc3c2Cc2c(O)cccc2-3)cc1`
high bracket

---

MEASURED TARGET: DNA topoisomerase 2-alpha (Homo sapiens)
PROTOCOL SUMMARY: Inhibition of recombinant human topoisomerase 2alpha-mediated relaxation of supercoiled pBR322 DNA at 20 uM measured after 30 mins by ethidium bromide staining based agarose gel electrophoresis relative to control
TEST READOUT: inhibition (%)
All answers are understood in %, so give the number only.

The measured inhibition that `Oc1ccc2c(c1)Cc1c(-c3ccccc3O)cc(-c3cccc(Cl)c3)nc1-2` showed for DNA topoisomerase 2-alpha (Homo sapiens) is 2.6

The measured inhibition that `Oc1ccccc1-c1cc(-c2cccc(C(F)(F)F)c2)nc2c1Cc1cccc(O)c1-2` showed for DNA topoisomerase 2-alpha (Homo sapiens) is 4.3

The measured inhibition that `Oc1ccc2c(c1)-c1nc(-c3cccc(Cl)c3)cc(-c3ccccc3O)c1C2` showed for DNA topoisomerase 2-alpha (Homo sapiens) is 10.8

---

MEASURED TARGET: UniProt:P11387
Sequence (whole entry): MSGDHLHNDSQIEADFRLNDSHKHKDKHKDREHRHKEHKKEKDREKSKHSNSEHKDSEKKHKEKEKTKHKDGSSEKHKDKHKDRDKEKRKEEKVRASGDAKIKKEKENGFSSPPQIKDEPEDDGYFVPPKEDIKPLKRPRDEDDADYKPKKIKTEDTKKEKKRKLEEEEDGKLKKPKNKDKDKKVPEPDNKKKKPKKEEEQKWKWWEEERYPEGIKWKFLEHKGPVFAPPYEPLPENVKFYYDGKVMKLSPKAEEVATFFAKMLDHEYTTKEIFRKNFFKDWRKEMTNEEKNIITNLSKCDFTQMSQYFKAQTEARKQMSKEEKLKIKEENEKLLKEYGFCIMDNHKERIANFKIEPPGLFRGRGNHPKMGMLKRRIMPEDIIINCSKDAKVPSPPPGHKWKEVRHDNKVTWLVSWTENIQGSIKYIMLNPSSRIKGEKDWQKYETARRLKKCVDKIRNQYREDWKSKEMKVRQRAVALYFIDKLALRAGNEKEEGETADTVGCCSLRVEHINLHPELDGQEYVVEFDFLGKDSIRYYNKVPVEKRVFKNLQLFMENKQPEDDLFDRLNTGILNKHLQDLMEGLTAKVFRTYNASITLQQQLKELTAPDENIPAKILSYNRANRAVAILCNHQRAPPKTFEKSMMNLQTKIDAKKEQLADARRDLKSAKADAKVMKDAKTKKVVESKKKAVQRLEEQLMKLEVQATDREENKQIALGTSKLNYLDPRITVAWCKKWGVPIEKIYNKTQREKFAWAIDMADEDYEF
PROTOCOL SUMMARY: Inhibition of recombinant human topoisomerase 1-mediated relaxation of supercoiled pBR322 DNA at 100 uM measured after 30 mins by ethidium bromide staining based agarose gel electrophoresis relative to control
Would you kindly list inhibition for each of these molecules?
All answers are understood in %, so give the number only.

Record `Oc1ccccc1-c1cc(-c2ccccc2)nc2c1Cc1cccc(O)c1-2` . Reported inhibition: 0.1

Record `Oc1cccc2c1-c1nc(-c3ccccc3)cc(-c3ccccc3)c1C2` . Reported inhibition: 0

Record `Oc1ccccc1-c1cc(-c2ccccc2Cl)nc2c1Cc1c(O)cccc1-2` . Reported inhibition: 0

Record `Oc1ccccc1-c1cc(-c2ccccc2)c2c(n1)-c1c(O)cccc1C2` . Reported inhibition: 1

---

Test system: DU-145
PROTOCOL SUMMARY: Antiproliferative activity against human DU145 cells measured after 72 hrs by EZ-Cytox assay
Type: functional, cell-based
CONDITION PARAMETERS: DU-145, 72 h
pIC50: −log10 of the molar value.
Think of 6 as a floor: if pIC50 stands on it or above, it is label 1; beneath it, label 0.

Has `Oc1ccccc1-c1cc(-c2ccccc2F)nc2c1Cc1c(O)cccc1-2` a recorded pIC50 greater than or equal to 6?
label 0

Has `Oc1ccc(-c2cc(-c3ccc(Cl)cc3)nc3c2Cc2cccc(O)c2-3)cc1` a recorded pIC50 greater than or equal to 6?
label 0

Has `Oc1ccccc1-c1cc(-c2ccccc2)nc2c1Cc1cccc(O)c1-2` a recorded pIC50 greater than or equal to 6?
label 1

Has `Oc1ccc(-c2cc(-c3cccc(C(F)(F)F)c3)nc3c2Cc2ccc(O)cc2-3)cc1` a recorded pIC50 greater than or equal to 6?
label 0

Has `Oc1ccc(-c2cc(-c3cccc(Cl)c3)c3c(n2)-c2ccc(O)cc2C3)cc1` a recorded pIC50 greater than or equal to 6?
label 0

Has `Oc1cccc(-c2cc(-c3ccc(Cl)cc3)nc3c2Cc2ccc(O)cc2-3)c1` a recorded pIC50 greater than or equal to 6?
label 0

Has `Oc1ccc(-c2cc(-c3ccccc3Cl)nc3c2Cc2c(O)cccc2-3)cc1` a recorded pIC50 greater than or equal to 6?
label 1

Has `Oc1cccc(-c2cc(-c3ccccc3Cl)nc3c2Cc2cccc(O)c2-3)c1` a recorded pIC50 greater than or equal to 6?
label 1

Cited source for all entries: ChEMBL document CHEMBL4373715
